Examples of compounds with documented % Inhibition (FS) 1 μM follow.
molecular target: β-secretase(BACE) (Homo sapiens, UniProt P56817); construct: purchased Panvera; assay: BACE FS1% Inhibition Assay; format: biochemical; conditions: 1 μM test compound; FS1 substrate
Sequence (P56817 46-501): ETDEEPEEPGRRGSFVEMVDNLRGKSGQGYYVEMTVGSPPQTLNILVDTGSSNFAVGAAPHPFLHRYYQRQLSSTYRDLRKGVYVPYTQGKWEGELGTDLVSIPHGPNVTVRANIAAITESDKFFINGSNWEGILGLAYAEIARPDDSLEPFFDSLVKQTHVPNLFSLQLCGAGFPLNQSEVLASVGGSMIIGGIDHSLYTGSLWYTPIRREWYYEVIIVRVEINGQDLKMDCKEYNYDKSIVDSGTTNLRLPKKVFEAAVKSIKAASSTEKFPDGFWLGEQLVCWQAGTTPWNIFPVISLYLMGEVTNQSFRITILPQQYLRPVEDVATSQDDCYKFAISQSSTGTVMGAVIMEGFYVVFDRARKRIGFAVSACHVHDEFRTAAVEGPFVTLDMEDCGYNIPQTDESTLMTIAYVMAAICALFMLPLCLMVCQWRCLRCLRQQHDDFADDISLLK

[
  {
    "compound": "CNC(=O)c1ccccc1Sc1ccc2c(c1)CN(Cc1cccc(C(=O)N(C)C3CCCCC3)c1)C(N)=N2 [Compound 416]",
    "experimental.result": "<30%"
  },
  {
    "compound": "CN(C(=O)c1cccc(CN2Cc3cc(-c4ccncc4)ccc3N=C2N)c1)C1CCCCC1 [Compound 168]",
    "experimental.result": "<30%"
  },
  {
    "compound": "CN(C(=O)CCC(C1CCCCC1)N1Cc2cc(Oc3ccccc3)ccc2N=C1N)C1CCC(O)CC1 (stereo not shown) [Compound 639]",
    "experimental.result": "<30%"
  },
  {
    "compound": "CN1CCC(N(C)C(=O)c2cccc(C(c3ccccc3)N3Cc4cc(Oc5ccccc5)ccc4N=C3N)c2)CC1 (stereo not shown) [Compound 316]",
    "experimental.result": "<30%"
  },
  {
    "compound": "COc1ccccc1-c1ccc2c(c1)CN([C@@H](CCC(=O)N(C)C1CCCCC1)C1CCCCC1)C(N)=N2 [Compound 506]",
    "experimental.result": "115%"
  },
  {
    "compound": "CSc1ccccc1Oc1ccc2c(c1)CN(Cc1cccc(C(=O)N(C)C3CCCCC3)c1)C(N)=N2 [Compound 474]",
    "experimental.result": "<30%"
  },
  {
    "compound": "NC1=Nc2ccc(-c3ccccc3F)cc2CN1CCNC(=O)C12CC3CC(CC(C3)C1)C2 [Compound 644]",
    "experimental.result": "72%"
  },
  {
    "compound": "CN(C(=O)c1cccc(CN2Cc3cc(Oc4cccc(-c5ccc6ccccc6n5)c4)ccc3N=C2N)c1)C1CCCCC1 [Compound 473]",
    "experimental.result": "<30%"
  },
  {
    "compound": "CC(=O)c1cccc(-c2ccc3c(c2)CN(CCNC(=O)Cc2ccccc2)C(N)=N3)c1 [Compound 598]",
    "experimental.result": "<30%"
  },
  {
    "compound": "CCCc1cccc(C)c1Oc1ccc2c(c1)CN(Cc1cccc(C(=O)N(C)C3CCCCC3)c1)C(N)=N2 [Compound 482]",
    "experimental.result": "<30%"
  }
]

Q: Look at this compound and give its reported % Inhibition (FS) 1 μM. NC1=Nc2ccc(-c3ccccc3F)cc2CN1CCNC(=O)C1CCCC1 [Compound 643]
A: 92%

Q: What do we get for CN(C(=O)c1cccc(CN2Cc3cc(-c4ccccc4OCc4ccccc4)ccc3N=C2N)c1)C1CCCCC1 [Compound 327] ?
A: <30%
